The measurements presented in this section are drawn from patent US12668785B2.

experiment notes: Plasma concentration of ticagrelor by LC-MS/MS
Format: in vivo
experimental conditions: C57BI6, mouse, intravenous, t = 80 min, ticagrelor 1.2 mg/kg + 30 μg/kg*min

{"chemical string": "CCCSc1nc(N[C@@H]2C[C@H]2c2ccc(F)c(F)c2)c2nnn([C@@H]3C[C@H](OCCO)[C@@H](O)[C@H]3O)c2n1", "value unit": "µM", "concentration at 80 min": 8}
